molecular target: T1, RIT1, mGppNHp-bound (human, UniProt Q92963 1-219); experiment: fluorescence polarisation; increasing concentrations of the RA/RB domain as MBP fusion protein (0.002-300 µM; or MBP alone) titrated to mGppNHp-bound RAS protein (1 µM); 30 mM Tris-HCl pH 7.4, 100 mM NaCl, 5 mM MgCl2, 3 mM DTT; Kd from a quadratic ligand-binding equation; details: both partners purified
T1 construct: human RIT1; Loaded with mGppNHp
T1 sequence (Q92963 whole entry, the tested form may be a part): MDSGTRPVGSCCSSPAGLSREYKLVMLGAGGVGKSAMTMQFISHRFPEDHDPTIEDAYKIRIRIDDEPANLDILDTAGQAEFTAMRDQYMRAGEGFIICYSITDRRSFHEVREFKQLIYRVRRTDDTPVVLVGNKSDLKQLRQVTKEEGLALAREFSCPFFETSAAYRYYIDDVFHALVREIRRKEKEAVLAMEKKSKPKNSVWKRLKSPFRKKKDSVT
recorded endpoint: Kd

Data request: // query Kd value for entry RASSF8 RA domain, MBP fusion protein (domain or fragment, human, UniProt Q8NHQ8 1-82, looked up, RASSF8 RA domain, aa 1-82 of Q8NHQ8) MELKVWVDGVQRIVCGVTEVTTCQEVVIALAQAIGRTGRYTLIEKWRDTERHLAPHENPIISLNKWGQYASDVQLILRRTGP
Data returned: 76 µM

Data request: // query Kd value for entry RASSF1 RA domain, MBP fusion protein (domain or fragment, human, UniProt Q9NS23 194-288, looked up, RASSF1 RA domain, aa 194-288 of Q9NS23) RGPGRGTSVRRRTSFYLPKDAVKHLHVLSRTRAREVIEALLRKFLVVDDPRKFALFERAERHGQVYLRKLLDDEQPLRLRLLAGPSDKALSFVLK
Data returned: 136 µM

Data request: // query Kd value for entry RASSF6 RA domain, MBP fusion protein (domain or fragment, human, UniProt Q6ZTQ3 218-306, looked up, RASSF6 RA domain, aa 218-306 of Q6ZTQ3) YNHETSIFIPAFESETKVRVNSNMRTEEVIKQLLQKFKIENSPQDFALHIIFATGEQRRLKKTDIPLLQRLLQGPSEKNARIFLMDKDA
Data returned: 98 µM

Data request: // query Kd value for entry RASSF10 RA domain, MBP fusion protein (domain or fragment, human, UniProt A6NK89 4-133, looked up, RASSF10 RA domain, aa 4-133 of A6NK89) SEKKISVWICQEEKLVSGLSRRTTCSDVVRVLLEDGCRRRRRQRRSRRLGSAGDPHGPGELPEPPNEDDEDDDEALPQGMLCGPPQCYCIVEKWRGFERILPNKTRILRLWAAWGEEQENVRFVLVRSEA
Data returned: 55 µM

Data request: // query Kd value for entry RASSF4 RA domain, MBP fusion protein (domain or fragment, human, UniProt Q9H2L5 174-262, looked up, RASSF4 RA domain, aa 174-262 of Q9H2L5) YNHKTSVFTPAYGSVTNVRVNSTMTTLQVLTLLLNKFRVEDGPSEFALYIVHESGERTKLKDCEYPLISRILHGPCEKIARIFLMEADL
Data returned: 58 µM

Each recorded value in this set is attributed to paper PMC8163975.
